subject.of.test: human muscarinic M1 receptor (Homo sapiens, UniProt P11229)
Construct: expressed in transfected cells
Sequence (P11229 whole entry): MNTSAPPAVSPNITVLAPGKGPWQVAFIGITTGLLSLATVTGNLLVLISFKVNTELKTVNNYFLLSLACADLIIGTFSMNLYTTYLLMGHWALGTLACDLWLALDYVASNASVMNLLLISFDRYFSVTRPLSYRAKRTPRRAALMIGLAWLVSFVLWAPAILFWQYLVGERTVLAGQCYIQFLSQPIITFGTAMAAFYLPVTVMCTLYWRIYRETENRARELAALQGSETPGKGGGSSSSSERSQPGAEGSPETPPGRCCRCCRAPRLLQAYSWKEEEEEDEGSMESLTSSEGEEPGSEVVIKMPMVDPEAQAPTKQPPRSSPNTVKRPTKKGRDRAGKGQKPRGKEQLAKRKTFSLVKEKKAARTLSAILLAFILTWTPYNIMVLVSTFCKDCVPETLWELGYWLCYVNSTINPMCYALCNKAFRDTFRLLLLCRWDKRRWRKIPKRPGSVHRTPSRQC
protocol.text: Alphascreen Surefire phospho-ERK1/2 functional assay, M1
Format: cell-based
condition.parameters: CHO, read-out: M1 % Emax cf. ACh, CHO cells stably expressing human M1; Emax relative to ACh
Hi there, I'd appreciate the recorded Emax for every entry that follows.
Give bare numbers, in %.

Worked examples follow.
Name the recorded Emax of the molecule listed here: CCCN1C(=O)OC2(CCN(C3CC4(CCN(C(=O)OC)C4)C3)CC2)C1(C)C (single isomer, unassigned) [4-36 Isomer 2]
35

// fetch Emax given entry CCOC(=O)N1CCC2(CC(N3CCC4(CC3)CNC(=O)C4)C2)C1 (single isomer, unassigned) [3-2 Isomer 2]
87

// Input: CCOC(=O)N1CC2(CC(N3CCC4(CC3)OC(=O)N(CC)C4(C)C)C2)C1 [Example 2-4] . Output its Emax only.
56

Please indicate Emax recorded for CCOC(=O)N1CCC2(CC(N3CCC4(CC3)OC(=O)NC4CC(F)(F)F)C2)C1 (single isomer, unassigned) [4-17 Isomer 1 (racemic)]
114

Assign Emax to the following record: CCOC(=O)N1CCC2(CC(N3CCC4(CC3)OC(=O)N(OC)C4CC)C2)C1 (mixture of isomers) [4-48 mixture of diastereomers]
56

Assign Emax to the following record: CCOC(=O)N1CCC2(CC(N3CCC4(CC3)CC(=O)NC4CC)C2)C1 (single isomer, unassigned) [3-5 Isomer 2]
96

With those in mind, consider the next molecule.
Quote Emax reported for CCOC(=O)N1CCC2(CC(N3CCC4(CC3)CC(=O)NC4C)C2)C1 (single isomer, unassigned) [3-3 Isomer 2] please.
97

Entry source: patent US10167284B2
